// data source = paper PMC9090415

molecular target: P. falciparum apicoplast DNA polymerase (Pf-apPOL) (Plasmodium falciparum, UniProt Q8ILY1); assay: Fluorescence-based high-throughput DNA polymerase assay (molecular beacon), primary screen and dose-response; type: biochemical; conditions: DRC-1; read at 10'; concentration 80
Sequence (Q8ILY1 entry or part of it): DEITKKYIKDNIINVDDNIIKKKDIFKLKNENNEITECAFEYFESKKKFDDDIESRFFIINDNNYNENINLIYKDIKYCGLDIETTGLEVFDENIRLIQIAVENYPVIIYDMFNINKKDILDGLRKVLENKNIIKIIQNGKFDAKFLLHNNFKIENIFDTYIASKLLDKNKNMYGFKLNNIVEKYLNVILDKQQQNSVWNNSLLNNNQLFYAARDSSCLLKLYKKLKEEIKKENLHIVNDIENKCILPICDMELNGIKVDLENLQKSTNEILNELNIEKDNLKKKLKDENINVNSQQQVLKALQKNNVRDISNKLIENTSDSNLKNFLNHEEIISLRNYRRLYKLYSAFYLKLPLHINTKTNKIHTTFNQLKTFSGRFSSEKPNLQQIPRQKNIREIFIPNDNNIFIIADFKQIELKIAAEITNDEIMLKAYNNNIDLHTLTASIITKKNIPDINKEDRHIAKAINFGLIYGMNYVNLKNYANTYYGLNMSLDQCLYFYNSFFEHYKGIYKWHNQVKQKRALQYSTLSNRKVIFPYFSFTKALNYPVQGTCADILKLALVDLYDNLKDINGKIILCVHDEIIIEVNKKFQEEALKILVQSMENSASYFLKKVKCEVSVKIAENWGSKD
measurementLabel: % inhibition Apo pol 10' 80 (%)
Express it in %; write the number only.

Solved entries (count: 2):
CC(C)CC(C(=O)O)N1C(=O)C2C3C=CC(C2C1=O)C1C(=O)N(C(CC(C)C)C(=O)O)C(=O)C31 (stereo not drawn)    61.0106
CCCc1ccc(Oc2coc3cc(OC)ccc3c2=O)cc1    56.0479

For the next question, use this molecule.
*Q* Could you tell me which % inhibition Apo pol 10' 80 is on file for O=C(c1ccccc1)N1CCc2c(nc3cc(-c4ccccc4)[nH]n3c2=O)C1 ?
*A* 78.4105

###

Each entry below carries its reported % inhibition Apol 40'.
target: UniProt:Q8ILY1; assay: Fluorescence-based high-throughput DNA polymerase assay (molecular beacon), primary screen and dose-response; assay type: biochemical; conditions: DRC-2; 40'; concentration 10
Express it in %; write the number only.

*Q* Could you tell me which % inhibition Apol 40' is on file for CN(C)S(=O)(=O)Oc1ccc(-c2noc(-c3ccc(Oc4cc(Cl)cc(Cl)c4)o3)n2)cc1 ?
*A* 36

*Q* Could you tell me which % inhibition Apol 40' is on file for OC(C#Cc1ccccc1)c1ccco1 (stereo not shown) ?
*A* 60

###

biological target: P. falciparum apicoplast DNA polymerase (Pf-apPOL) (Plasmodium falciparum, UniProt Q8ILY1); assay: Fluorescence-based high-throughput DNA polymerase assay (molecular beacon), primary screen and dose-response; assay type: biochemical; settings: DRC-2; concentration 2.5; 180';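 on % inhibition apPOL 180': test concentration in µM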
measurementLabel: % inhibition apPOL 180' (%)
Express it in %; write the number only.

Solved entries (count: 3):
Oc1cccnc1/N=C/c1cc(I)cc(I)c1O    15
COc1cc(/C=C2\C(=O)N(c3ccc(C(=O)O)cc3)N=C2C(F)(F)F)ccc1OCC(C)C    0.394
O=C(Nc1c2c(nn1-c1ccccc1)CSC2)c1ccco1    9

*Q* Could you tell me which % inhibition apPOL 180' is on file for O=C(O)c1cc([N+](=O)[O-])c(N2CCN(c3cccc(C(F)(F)F)c3)CC2)c([N+](=O)[O-])c1 ?
*A* 5

*Q* Could you tell me which % inhibition apPOL 180' is on file for COc1ccc(-c2occ(C(=O)O)c2C(=O)O)cc1 ?
*A* 10

*Q* Could you tell me which % inhibition apPOL 180' is on file for O=C(O)c1nc(-c2ccccc2)nc2c1OCO2 ?
*A* -1.61

*Q* Could you tell me which % inhibition apPOL 180' is on file for Cc1ccc(C2=N/C(=C\c3ccc(I)o3)C(=O)O2)cc1[N+](=O)[O-] ?
*A* 11

###

target: UniProt:Q8ILY1; test: Fluorescence-based high-throughput DNA polymerase assay (molecular beacon), primary screen and dose-response; format: biochemical; settings: DRC-2; 40'; concentration 2.5
Each entry below carries its reported % inhibition Apol 40'.
Express it in %; write the number only.

Solved entries (count: 5):
Cc1cccc(-c2nnc3ccc(NS(=O)(=O)c4ccc(C)c(C)c4)nn23)c1 [Molecule 40]    4.3
COc1ccc(-c2cc(=O)c3cc(O)ccc3o2)cc1OC [KU0193655]    1.36
COc1cc(Cl)c(C)cc1NC(=O)Cn1ccc2c(=O)[nH]ccc21 [Molecule 33]    -1.56
CN(C)S(=O)(=O)Oc1ccc(-c2noc(-c3ccc(Oc4cc(Cl)cc(Cl)c4)o3)n2)cc1 [KU0263859]    3
Cc1nc(/N=N/c2ccc(C(=O)[O-])cc2)c(COP(=O)([O-])[O-])c(C=O)c1O.[Na+].[Na+].[Na+] [KU0261395]    33

*Q* Could you tell me which % inhibition Apol 40' is on file for O=C(CSc1nc2ccccc2s1)Nc1ncc([N+](=O)[O-])s1 [KU0019667] ?
*A* -1.35

*Q* Could you tell me which % inhibition Apol 40' is on file for COCC(=O)Nc1c(-c2cccc(F)c2)nc2cc(C)ccn12 [Molecule 44, COCC(=O)Nc1c(nc2n1ccc(c2)C)c1cccc(c1)F] ?
*A* 9
